Could you please report measured TGI for the items listed next?
Tested on: A498 renal
Assay: NCI tumour cell line growth inhibition, 48 h

Tested on A498 renal: `CCCCSC1=N/C(=C\c2ccccc2O)C(=O)N1` . Observed TGI: > 100 µM

Tested on A498 renal: `CCSC[C@@H]1C[C@](O)(c2ccc(Cl)cc2)[C@@H](c2ccc(Cl)cc2)O1` . Observed TGI: 32.1 µM

Tested on A498 renal: `CO/C=C(/C(=O)OC)[C@@H]1C[C@@H]1c1ccc2ccccc2c1` . Observed TGI: > 100 µM

Tested on A498 renal: `CCN1CCN(CCNc2nccc(-c3c(-c4ccc(F)c(O)c4)nc4occn34)n2)S1(=O)=O` . Observed TGI: > 100 µM

Tested on A498 renal: `Cn1c(-c2ccc(C=O)o2)ccc1-c1ccc(C=O)o1` . Observed TGI: > 100 µM

Tested on A498 renal: `NS(=O)(=O)c1ccc(NC(=O)N/N=C/c2ccccc2[N+](=O)[O-])cc1` . Observed TGI: > 100 µM

Tested on A498 renal: `COC(=O)C1=C(C)NC(=O)N2[C@@H](CCOCc3ccccc3)CC[C@@H]12` . Observed TGI: > 50 µM

Tested on A498 renal: `COC(=O)[C@H](Cc1ccccc1)NC(=O)c1ccc(CNC(=O)/C=C/c2ccc(OCc3ccccc3)cc2)cc1` . Observed TGI: 21.4 µM

Tested on A498 renal: CC1=C(C#N)C23C(=O)N(c4ccccc4)C(=O)C2=C(O)C=CC3(O)N1Cc1ccc(Cl)cc1Cl (stereo not drawn) . Observed TGI: 18.1 µM

Tested on A498 renal: `O=c1cc(-c2ccc(F)cc2)[nH]c2ncccc12` . Observed TGI: > 100 µM

Tested on A498 renal: `CCOC(=O)C(=Cc1ccc(C#N)cc1)C(=O)OCC` . Observed TGI: 20.1 µM

Tested on A498 renal: `c1ccc(SC(Sc2ccccc2)=C2CCC2)cc1` . Observed TGI: > 100 µM

Tested on A498 renal: `Cc1c(Cn2c(C)nc3c(C(=O)O)cc(N4CCOCC4)cc32)cccc1C(F)(F)F` . Observed TGI: 0.319 µM

Tested on A498 renal: C#CC1(O)CCC2[C@@H]3CCc4cc(Oc5nc(F)nc(-c6c(C)c(C(=O)OCC)n7ccccc67)n5)ccc4C3CC[C@@]21C (stereo partly drawn) . Observed TGI: > 100 µM

Tested on A498 renal: OC1NC2Nc3ccccc3NC2NC1O (stereo not drawn) . Observed TGI: > 100 µM

Tested on A498 renal: `NC1=Nc2ccccc2Sc2nncn21` . Observed TGI: > 100 µM

Tested on A498 renal: `NC(=S)N1N=C2CCCCCC[C@@H]2[C@H]1c1ccccc1` . Observed TGI: > 100 µM

Tested on A498 renal: COc1ccc(N2C(=O)C3CC(c4ccc(Br)cc4)c4c([nH]c5ccccc45)C3C2=O)cc1 (stereo not drawn) . Observed TGI: 22.3 µM

Tested on A498 renal: COc1ccc(C2SCC(=O)N2c2ccc(-n3c(-c4ccccc4)nc4ccccc4c3=O)cc2)cc1 (stereo not drawn) . Observed TGI: > 100 µM

Tested on A498 renal: `COc1cc2nc(N3CCCN(C)CC3)nc(NC3CCN(Cc4ccccc4)CC3)c2cc1OC` . Observed TGI: 7.66 µM

Tested on A498 renal: COC1OC2COC1(OCc1ccccc1)C1OC(C)(C)OC21 (stereo not drawn) . Observed TGI: > 100 µM

Tested on A498 renal: `O=C1c2ccccc2-c2c3c(cc4ccnc1c24)OCO3` . Observed TGI: 12.8 µM

Tested on A498 renal: `CCCCN(CC)C(=O)C(=O)Cc1nc2ccc(C(=O)c3ccccc3)cc2[nH]c1=O` . Observed TGI: > 100 µM

Tested on A498 renal: CN(O)C(=O)CCC(NC(=O)CCC(N)C(=O)O)C(=O)NCC(=O)O (stereo not drawn) . Observed TGI: > 100 µM

Tested on A498 renal: `Cc1nc(-c2ccccc2)cn2c1nc1ccccc12` . Observed TGI: 23.5 µM

Tested on A498 renal: CC1C(C)(C)C23CC12C1(OCCO1)C3Br (stereo not drawn) . Observed TGI: > 100 µM

Tested on A498 renal: `O=S1(=O)c2ccccc2N(O)C2=NCCN21` . Observed TGI: > 100 µM

Tested on A498 renal: `COC(=O)C1=CO[C@@H](C)[C@@H]2Cn3ccc4c5ccccc5nc-4c3C[C@H]12` . Observed TGI: > 100 µM

Tested on A498 renal: CC(C)(C)OC(=O)C1C(=O)NC(=O)CC1CC(OCc1ccccc1)C(OCc1ccccc1)C(COCc1ccccc1)OCc1ccccc1 (stereo not drawn) . Observed TGI: > 100 µM

Tested on A498 renal: CC1=CCC2CC1C(C(=O)c1c[nH]c3ccccc13)=NC2(C)C (stereo not drawn) . Observed TGI: > 100 µM

Tested on A498 renal: `CCCCCCN(CCCCCC)CCC(=O)c1ccc2cc(Br)c3ccccc3c2c1` . Observed TGI: > 100 µM

Tested on A498 renal: COc1ccc(C2CC(c3c(O)ccc4ccccc34)=NN2)cc1OC (stereo not drawn) . Observed TGI: 43.6 µM

Tested on A498 renal: `COc1ccc(Nc2nc(NCCNc3ccnc4cc(Cl)ccc34)nc(N3CCOCC3)n2)cc1` . Observed TGI: 2.19 µM

Tested on A498 renal: COc1ccc(C(=O)C2CCC(C(=O)O)C2)cc1 (stereo not drawn) . Observed TGI: > 100 µM

Tested on A498 renal: Cc1cn(C2CC(n3cc(Cn4ccc(=O)[nH]c4=O)nn3)C(CO)O2)c(=O)[nH]c1=O (stereo not drawn) . Observed TGI: > 100 µM

Tested on A498 renal: `NCC(=O)Nc1ccccc1` . Observed TGI: > 100 µM

Tested on A498 renal: `COc1cc(CCC[P+](c2ccccc2)(c2ccccc2)c2ccccc2)c(OC)c2c1OCO2` . Observed TGI: 4.28 µM

Tested on A498 renal: `COC(NC(=O)Nc1ccc(C)cc1)(C(F)(F)F)C(F)(F)F` . Observed TGI: 90.1 µM

Tested on A498 renal: CC1(C)Oc2ccc3ccc(=O)oc3c2C(O)C1O (stereo not drawn) . Observed TGI: > 100 µM

Tested on A498 renal: `CCOP(=O)(OCC)Oc1c(OC)c2[nH]c(C(=O)OC)cc2c2c(C(=O)O)c[nH]c12` . Observed TGI: > 100 µM

Tested on A498 renal: CC(C)C1CSC2N1C(=O)C2(OCc1ccccc1)C1CC1 (stereo not drawn) . Observed TGI: > 100 µM

Tested on A498 renal: `Cc1cccc(-c2nnc3s/c(=C\c4ccc(N(C)C)cc4)c(=O)n23)c1` . Observed TGI: > 100 µM

Tested on A498 renal: `Fc1cccc(COc2ccc(Nc3ncnc4onc(-c5ccccc5)c34)cc2)c1` . Observed TGI: 3.18 µM
